ASSAY NAME: Binding affinity for D1-like [3H]-SCH- 23390 receptor was determined using caudate-putamen of adult male Spragueo?=Dawley rats
Assay type: tissue-based, Rattus norvegicus
TEST READOUT: Ki (µM)
Report the figure in µM without appending any unit label.

>>> val("O=C(NCCN1CCN2c3ccccc3CCC2C1)c1ccc2ccccc2c1 (centres undefined)")
1.22
>>> val("COc1ccc2c(c1)N1CCN(CCCCNC(=O)c3ccc4ccccc4c3)CC1CC2 (centres undefined)")
5.8
>>> val("COc1cccc2c1CCC1CN(CCCCNC(=O)c3ccc4ccccc4c3)CCN21 (centres undefined)")
4.6
>>> val("COc1cccc2c1N1CCN(CCCCNC(=O)c3ccc4ccccc4c3)CC1CC2 (centres undefined)")
6.05
>>> val("O=C(CCCN1CCN2c3ccccc3CCC2C1)c1ccc(F)cc1 (centres undefined)")
0.904
>>> val("O=C(CCN1CCN2c3ccccc3CCC2C1)c1ccc(F)cc1 (centres undefined)")
8.89

Could you now consider this next molecule?
Problem: Please indicate Ki recorded for O=C(NCCCCN1CCN2c3ccccc3CCC2C1)c1ccc(-c2ccccc2)cc1 (centres undefined)
Solution: 0.258

Data origin, for the record: ChEMBL document CHEMBL1142048
